# Subject Of Test: human ether-à-go-go-related gene (hERG) potassium channel (human, UniProt Q12809)
# Sequence (Q12809 whole entry, looked up): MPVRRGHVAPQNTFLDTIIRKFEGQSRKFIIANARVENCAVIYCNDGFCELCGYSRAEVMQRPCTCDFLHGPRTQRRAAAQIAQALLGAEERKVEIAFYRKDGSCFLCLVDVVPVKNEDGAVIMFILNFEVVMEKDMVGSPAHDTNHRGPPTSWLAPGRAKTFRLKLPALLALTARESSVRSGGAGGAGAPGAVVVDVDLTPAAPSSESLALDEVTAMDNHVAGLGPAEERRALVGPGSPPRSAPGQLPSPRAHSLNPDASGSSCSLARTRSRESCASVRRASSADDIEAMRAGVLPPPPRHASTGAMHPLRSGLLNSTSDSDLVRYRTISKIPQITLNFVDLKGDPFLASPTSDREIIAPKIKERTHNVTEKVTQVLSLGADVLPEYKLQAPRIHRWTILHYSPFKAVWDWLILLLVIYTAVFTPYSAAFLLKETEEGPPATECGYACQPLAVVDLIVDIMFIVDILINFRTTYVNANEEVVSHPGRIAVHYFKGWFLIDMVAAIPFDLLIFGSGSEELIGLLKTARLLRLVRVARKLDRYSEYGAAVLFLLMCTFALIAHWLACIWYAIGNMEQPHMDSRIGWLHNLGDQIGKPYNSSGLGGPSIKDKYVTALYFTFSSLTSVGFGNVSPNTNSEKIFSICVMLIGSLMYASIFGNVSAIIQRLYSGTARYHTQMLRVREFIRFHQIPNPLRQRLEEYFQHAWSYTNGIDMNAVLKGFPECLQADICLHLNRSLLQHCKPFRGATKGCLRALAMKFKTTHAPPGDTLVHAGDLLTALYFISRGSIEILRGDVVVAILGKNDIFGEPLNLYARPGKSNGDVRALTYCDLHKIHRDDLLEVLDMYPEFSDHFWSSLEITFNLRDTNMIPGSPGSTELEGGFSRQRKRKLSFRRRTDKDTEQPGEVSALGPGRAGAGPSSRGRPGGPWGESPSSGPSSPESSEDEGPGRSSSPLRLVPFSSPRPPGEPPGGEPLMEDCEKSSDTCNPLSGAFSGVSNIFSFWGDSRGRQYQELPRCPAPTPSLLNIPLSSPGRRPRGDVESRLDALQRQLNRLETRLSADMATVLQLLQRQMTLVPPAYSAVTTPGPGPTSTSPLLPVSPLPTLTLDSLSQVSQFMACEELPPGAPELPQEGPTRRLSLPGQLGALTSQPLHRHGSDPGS
# Protocol Notes: primary screen, population patch clamp on CHO cells stably expressing hERG; higher = less effect of the substance
Out of some 310,000 compounds screened, about 14,000 (4.5%) showed an effect of 50% or more. Effects have a minus sign here. The list comes from a sample in which strong results are over-represented; it also holds close analogues and randomly drawn compounds.
Property Label: hERG current change (%, negative = inhibition) at 10uM (%)
Just the number in %, nothing appended.

Molecule	Subject Of Test	Quantitative Readout
COc1ccc(C2=NN(C(=O)CSc3nc(=O)n4cccc(C)c4n3)C(c3ccc(C)cc3)C2)cc1 (centres unmarked)	human ether-à-go-go-related gene (hERG) potassium channel (human, UniProt Q12809)	4.53
Cn1c(N=Nc2ccccc2)nc2ccccc21	human ether-à-go-go-related gene (hERG) potassium channel (human, UniProt Q12809)	4.08
COc1ccc(C2CC(c3cccs3)=NN2C(=O)CSc2nc(=O)n3cc(C)ccc3n2)cc1 (centres unmarked)	human ether-à-go-go-related gene (hERG) potassium channel (human, UniProt Q12809)	-64.8
CCCc1noc2c1/C(=N\O)CC(CC(C)SCC)C2 (centres unmarked)	human ether-à-go-go-related gene (hERG) potassium channel (human, UniProt Q12809)	-11.1

--- query ---
Ask: Requested read-out hERG current change (%, negative = inhibition) at 10uM, target or system human ether-à-go-go-related gene (hERG) potassium channel (human, UniProt Q12809), entry CCN1C(=O)C2(C(C(=O)c3ccc(C)o3)=C(O)C(=O)N2CCCN2CCOCC2)c2ccccc21 (centres unmarked);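 further: peak tail current of the secondary pulse compared with the same well before compound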
Result: 0.0517

====

Reported hERG current change (%, negative = inhibition) at 10uM values follow for various compounds
# Subject Of Test: human ether-à-go-go-related gene (hERG) potassium channel (human)
# Protocol Notes: primary screen, population patch clamp on CHO cells stably expressing hERG; higher = less effect of the substance
Among all 310,000 compounds or so, about 14,000 (4.5%) showed an effect of 50% or more. Effects have a minus sign here. The sample holds strong results, similar compounds and a random draw of the others, so the mix is not that of the screen.
Value expressed in %; do not type the unit.

Consider the following illustrative entries.
Compound String	Subject Of Test	Unit Spec	Quantitative Readout
COc1cc(N)c(Cl)cc1C(=O)OCC(=O)c1ccc2c(c1)NC(=O)CO2	human ether-à-go-go-related gene (hERG) potassium channel (human)	%	1.68
COC(=O)c1ccc(NC(=O)CSc2nc(N)c(NC(=O)c3ccc(Br)o3)c(=O)[nH]2)cc1	human ether-à-go-go-related gene (hERG) potassium channel (human)	%	20.8
Cc1ccc(NS(=O)(=O)c2c(C)[nH]c(=O)[nH]c2=O)c(C)c1	human ether-à-go-go-related gene (hERG) potassium channel (human)	%	24.3
O=C(Nc1cc(F)ccc1F)c1cccc(-n2cnnn2)c1	human ether-à-go-go-related gene (hERG) potassium channel (human)	%	-18.3

Please turn your attention to the following entry.
Ask: Give its hERG current change (%, negative = inhibition) at 10uM value. Item: CCN(CC#CCC1(O)c2ccccc2-c2ccccc21)C(C)C
Result: -9.99

====

# key: entry, value: hERG current change (%, negative = inhibition) at 10uM
# Subject Of Test: human ether-à-go-go-related gene (hERG) potassium channel (human)
# Protocol Notes: primary screen, population patch clamp on CHO cells stably expressing hERG; higher = less effect of the substance
Screen size: about 310,000 compounds; about 14,000 (4.5%) showed an effect of 50% or more. Effects have a minus sign here. This excerpt belongs to a sample that is enriched for strong results.
Kindly provide the numeric value in % only, without the unit symbol.

Some solved entries appear below for comparison.
Compound	Unit Spec	Quantitative Readout
CCNc1nc(NC(C)CC)nc(ON=C(C)C)n1 (centres unmarked)	%	-2.23
CCOC(=O)N1CCN(Cc2nc3ccc([N+](=O)[O-])cc3c(=O)n2-c2ccccc2F)CC1	%	-69.9
CCOc1ccccc1-n1c(CN2CCN(C(=O)c3ccco3)CC2)nc2ccccc2c1=O	%	-26.2
CCOC(=O)N1CCN(Cc2nc3ccc([N+](=O)[O-])cc3c(=O)n2-c2cccc(OC)c2)CC1	%	-39.8
CCC(CC)N1CCN(Cc2nc3ccc([N+](=O)[O-])cc3c(=O)n2-c2ccccc2F)CC1	%	-57

Ask: Any idea what hERG current change (%, negative = inhibition) at 10uM came out for CCN1CCN(Cc2nc3ccc([N+](=O)[O-])cc3c(=O)n2-c2ccccc2F)CC1 on human ether-à-go-go-related gene (hERG) potassium channel (human)?
Result: 17.9

Ask: Entry CCOC(=O)c1ccc(-n2c(CN3CCN(CC)CC3)nc3ccc([N+](=O)[O-])cc3c2=O)cc1 please
Result: -55

Ask: Next record, please: CCOC(=O)N1CCN(Cc2nc3ccc([N+](=O)[O-])cc3c(=O)n2-c2ccc(OC)cc2OC)CC1
Result: -46.1
